Attribution: patent US8906908B2

TARGET UNDER TEST: muscle-type nAChR (α1β1γδ- or α1*-nAChR) (Homo sapiens, UniProt P02708+P07510+P11230+Q07001)
Construct: Cells of the TE671/RD line naturally expresses muscle-type nAChR; endogenous in cells; host or cells: TE671/RD cells
Sequence (P02708 21-457): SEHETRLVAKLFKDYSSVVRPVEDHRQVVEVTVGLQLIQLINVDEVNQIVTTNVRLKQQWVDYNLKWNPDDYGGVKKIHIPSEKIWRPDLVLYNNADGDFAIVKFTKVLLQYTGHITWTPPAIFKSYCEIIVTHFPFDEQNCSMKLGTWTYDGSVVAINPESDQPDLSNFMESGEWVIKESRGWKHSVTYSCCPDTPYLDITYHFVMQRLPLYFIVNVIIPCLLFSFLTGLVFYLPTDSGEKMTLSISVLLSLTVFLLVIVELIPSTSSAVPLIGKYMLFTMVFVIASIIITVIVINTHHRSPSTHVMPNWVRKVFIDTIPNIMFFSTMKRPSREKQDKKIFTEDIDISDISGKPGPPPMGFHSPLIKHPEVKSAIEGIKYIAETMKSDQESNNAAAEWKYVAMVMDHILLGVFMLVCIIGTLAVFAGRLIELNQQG
Sequence (P11230 24-501): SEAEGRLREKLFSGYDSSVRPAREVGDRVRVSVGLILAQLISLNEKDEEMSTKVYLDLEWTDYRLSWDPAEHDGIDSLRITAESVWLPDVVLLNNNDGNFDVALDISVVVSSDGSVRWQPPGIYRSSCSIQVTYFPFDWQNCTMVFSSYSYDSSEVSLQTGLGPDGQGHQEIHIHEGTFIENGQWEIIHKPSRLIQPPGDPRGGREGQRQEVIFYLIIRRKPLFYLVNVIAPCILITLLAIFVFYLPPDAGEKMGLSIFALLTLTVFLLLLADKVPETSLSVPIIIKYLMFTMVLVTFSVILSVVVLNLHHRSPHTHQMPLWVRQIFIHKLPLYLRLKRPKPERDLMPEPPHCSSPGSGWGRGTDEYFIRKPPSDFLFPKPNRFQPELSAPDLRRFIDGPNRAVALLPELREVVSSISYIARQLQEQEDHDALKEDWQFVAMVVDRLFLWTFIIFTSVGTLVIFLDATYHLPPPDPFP
Sequence (P07510 23-517): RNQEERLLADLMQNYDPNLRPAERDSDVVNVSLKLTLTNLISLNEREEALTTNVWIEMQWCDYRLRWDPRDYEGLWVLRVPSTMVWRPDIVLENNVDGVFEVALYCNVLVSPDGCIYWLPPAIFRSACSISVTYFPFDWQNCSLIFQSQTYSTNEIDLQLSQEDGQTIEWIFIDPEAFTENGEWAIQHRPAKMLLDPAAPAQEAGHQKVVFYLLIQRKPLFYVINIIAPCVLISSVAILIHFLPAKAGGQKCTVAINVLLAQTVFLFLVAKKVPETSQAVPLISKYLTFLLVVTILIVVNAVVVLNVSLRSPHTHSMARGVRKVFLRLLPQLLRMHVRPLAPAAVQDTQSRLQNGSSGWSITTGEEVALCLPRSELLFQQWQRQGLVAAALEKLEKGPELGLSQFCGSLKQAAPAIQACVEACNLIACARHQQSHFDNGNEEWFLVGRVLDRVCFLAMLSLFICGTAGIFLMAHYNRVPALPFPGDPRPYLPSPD
Sequence (Q07001 22-517): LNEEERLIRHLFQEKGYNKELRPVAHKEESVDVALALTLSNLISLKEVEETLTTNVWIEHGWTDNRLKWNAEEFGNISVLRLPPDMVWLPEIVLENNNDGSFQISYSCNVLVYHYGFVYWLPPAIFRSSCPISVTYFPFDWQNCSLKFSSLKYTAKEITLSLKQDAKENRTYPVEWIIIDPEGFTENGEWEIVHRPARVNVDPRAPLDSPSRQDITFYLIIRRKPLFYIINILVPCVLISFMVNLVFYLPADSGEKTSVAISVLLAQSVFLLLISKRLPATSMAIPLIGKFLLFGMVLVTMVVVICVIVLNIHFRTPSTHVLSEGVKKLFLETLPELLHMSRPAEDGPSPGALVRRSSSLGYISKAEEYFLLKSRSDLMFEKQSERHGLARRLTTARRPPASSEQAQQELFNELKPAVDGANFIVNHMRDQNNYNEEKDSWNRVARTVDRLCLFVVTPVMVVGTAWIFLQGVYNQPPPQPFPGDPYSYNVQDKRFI
PROCEDURE TEXT: 86Rb+ efflux nAChR functional assay, TE671/RD cells
Type: cell-based
MEASUREMENT CONTEXT: EC80-EC90 carbamylcholine, parentheses = S.E.M. as multiplication/division factor, read-out: nAChR inhibition IC50 α1*β1
// reported IC50 per item
MEASUREMENT LABEL: IC50 (µM)

1) Cc1ccc([C@]2(O)OCC(C)(C)N[C@H]2C)cc1 ... 20
2) C[C@@H]1N(C)C(C)(C)CO[C@@]1(O)c1ccc(Cl)cc1 ... 43
3) COc1ccc([C@]2(O)OCC(C)(C)N[C@H]2C)cc1 ... 25
4) C[C@@H]1NC(C)(C)CO[C@@]1(O)c1cccc([N+](=O)[O-])c1 ... 96
5) C[C@@H]1NC(C)(C)CO[C@@]1(O)c1ccc2ccccc2c1 ... 11
6) COc1cccc([C@]2(O)OCC(C)(C)N[C@H]2C)c1 ... 49
7) C[C@@H]1NC(C)(C)CO[C@@]1(O)c1ccc(F)cc1 ... 69
8) C[C@@H]1NC(C)(C)CO[C@@]1(O)c1cc(F)cc(F)c1 ... 23
9) C[C@@H]1NC(C)(C)CO[C@@]1(O)c1ccc(Cl)cc1 ... 19
10) C[C@@H]1NC(C)(C)CO[C@@]1(O)c1ccc(F)c(F)c1 ... 36
11) C[C@@H]1NC(C)(C)CO[C@@]1(O)c1cccc2ccccc12 ... 6.6
12) C[C@@H]1N(C)C(C)(C)CO[C@@]1(O)c1cccc(Cl)c1 ... 57
13) Cc1cccc([C@]2(O)OCC(C)(C)N[C@H]2C)c1 ... 33
14) CC[C@@H]1NC(C)(C)CO[C@@]1(O)c1cccc(Cl)c1 ... 14
15) C[C@@H]1NC(C)(C)CO[C@@]1(O)c1cccc(Br)c1 ... 18
16) C[C@@H]1NC(C)(C)CO[C@@]1(O)c1ccc(-c2ccccc2)cc1 ... 5.9
